System: melanoma cell line RPMI-7951
ASSAY NOTES: Cytotoxicity in cancer cell lines (CellTiter-Glo), RPMI-7951
Assay type: cell-based
CONDITIONS USED: Homo sapiens, RPMI-7951, 72 h, read-out: Cytotoxicity EC50 at 72 hours, RPMI
# note: exactly 20 µM is not below, so it is not fulfilled; use fulfilled for EC50 strictly under it

Reference set, count: 2
O=S1(=O)C=CC(OS(=O)(=O)c2ccc3ccccc3c2)C1 (stereo not shown); fulfilled
O=C(COC1C=CS(=O)(=O)C1)c1ccc2ccccc2c1 (stereo not shown); fulfilled

Quick check: EC50 of O=S1(=O)C=CC(OS(=O)(=O)c2ccc(-c3ccccc3)cc2)C1 (stereo not shown) under 20 µM?
fulfilled

Try this compound next: O=S1(=O)C=CC(OCc2ccc(-c3ccccc3)cc2)C1 (stereo not shown)
not fulfilled

---

Measured EC50 values are reported for all entries that follow.
Tested on: immortalized human T lymphocyte Jurkat cells
ASSAY NOTES: Cytotoxicity in cancer cell lines (CellTiter-Glo), Jurkat
Format: cell-based
CONDITIONS USED: 48 h, Jurkat cells, mean of three tests, read-out: Cytotoxicity EC50 at 48 hours, Jurkat

Below, each entry is followed by its recorded EC50 result.
O=S1(=O)C=CC(OCc2ccc(Oc3ccccc3)cc2)C1 (stereo not drawn); > 100 µM
CN(C1=CCS(=O)(=O)C1)S(=O)(=O)c1ccc2ccccc2c1; > 100 µM
CN(C1=CS(=O)(=O)CC1)S(=O)(=O)c1ccc2ccccc2c1; > 100 µM
O=S1(=O)C=CC(OS(=O)(=O)c2ccc3ccccc3c2)C1 (stereo not drawn); 3 µM
O=C(NC1C=CS(=O)(=O)C1)c1ccc2ccccc2c1 (stereo not drawn); 10 µM

# input compound: O=S1(=O)C=CC(NS(=O)(=O)c2ccc3ccccc3c2)C1 (stereo not drawn) ; wanted: its EC50
6 µM

---

Test system: melanoma cell line RPMI-7951
ASSAY NOTES: Cytotoxicity in cancer cell lines (CellTiter-Glo), RPMI-7951
Type: cell-based
CONDITIONS USED: Homo sapiens, RPMI-7951, 72 h, read-out: Cytotoxicity EC50 at 72 hours, RPMI
QUANTITY NAME: EC50

See these solved cases before continuing.
O=C(Nc1ccc(-c2ccccc2)cc1)OC1C=CS(=O)(=O)C1 (stereo not drawn); 12 µM
O=S1(=O)C=CC(OCc2ccc(Oc3ccccc3)cc2)C1 (stereo not drawn); 24 µM

Pending compound:
Requested read-out: EC50. Entry: CN(C1CCS(=O)(=O)C1)S(=O)(=O)c1ccc2ccccc2c1 (stereo not drawn)
> 100 µM
